Target: TAO2 (Homo sapiens, UniProt Q9UL54)
Construct: screened for activity against several kinases in Jurkat cells; endogenous in cells; host or cells: Jurkat cell lysate
Sequence (Q9UL54 whole entry): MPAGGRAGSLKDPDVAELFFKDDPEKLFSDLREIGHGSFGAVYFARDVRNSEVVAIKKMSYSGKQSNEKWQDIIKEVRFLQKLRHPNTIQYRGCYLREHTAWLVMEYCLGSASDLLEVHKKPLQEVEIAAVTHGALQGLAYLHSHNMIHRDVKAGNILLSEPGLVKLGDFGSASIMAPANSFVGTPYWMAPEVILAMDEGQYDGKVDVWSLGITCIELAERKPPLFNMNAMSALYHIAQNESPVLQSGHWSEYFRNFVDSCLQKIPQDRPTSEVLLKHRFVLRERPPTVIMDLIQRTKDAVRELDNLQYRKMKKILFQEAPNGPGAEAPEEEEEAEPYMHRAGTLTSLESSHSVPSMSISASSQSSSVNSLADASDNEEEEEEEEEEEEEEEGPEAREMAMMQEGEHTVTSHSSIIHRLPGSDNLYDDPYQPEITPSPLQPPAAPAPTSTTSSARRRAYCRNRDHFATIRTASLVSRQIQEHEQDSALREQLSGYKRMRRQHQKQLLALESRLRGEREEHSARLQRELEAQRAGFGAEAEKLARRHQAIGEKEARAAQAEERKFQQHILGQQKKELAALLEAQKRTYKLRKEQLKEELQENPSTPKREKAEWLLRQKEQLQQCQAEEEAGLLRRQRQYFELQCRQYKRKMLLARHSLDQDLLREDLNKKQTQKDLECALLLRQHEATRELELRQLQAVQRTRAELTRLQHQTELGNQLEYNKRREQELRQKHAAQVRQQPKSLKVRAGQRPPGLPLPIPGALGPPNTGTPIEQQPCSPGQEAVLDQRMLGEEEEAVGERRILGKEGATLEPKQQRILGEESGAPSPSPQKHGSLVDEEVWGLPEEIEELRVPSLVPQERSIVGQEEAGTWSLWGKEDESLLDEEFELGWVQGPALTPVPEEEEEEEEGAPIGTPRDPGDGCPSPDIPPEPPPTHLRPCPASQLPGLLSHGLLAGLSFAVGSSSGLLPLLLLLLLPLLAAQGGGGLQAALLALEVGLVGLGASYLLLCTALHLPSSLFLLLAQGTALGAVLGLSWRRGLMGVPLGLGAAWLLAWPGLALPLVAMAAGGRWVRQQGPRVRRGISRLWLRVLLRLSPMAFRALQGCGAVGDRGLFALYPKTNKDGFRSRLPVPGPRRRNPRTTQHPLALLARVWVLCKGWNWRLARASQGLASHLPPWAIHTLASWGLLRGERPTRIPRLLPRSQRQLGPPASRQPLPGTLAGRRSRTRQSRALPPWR
Experiment: Probe-based (AX9989) kinase profiling in Jurkat lysate: TAO2
Assay type: binding
Settings: screening concentration 10 μM; read-out: TAO2 Inhibition % at indicated screening concentration
Please provide measured inhibition at 10 µM for the entries that follow.

For orientation, consider the following solved cases.
compound: CCOc1cc(C(=O)O)ccc1Nc1cc2c(cn1)N(C)S(=O)(=O)c1ccccc1N2C
system-tested: TAO2 (Homo sapiens, UniProt Q9UL54)
observed-property: inhibition at 10 µM
endpoint-result: ≤ 35%

compound: CN1C(=O)c2c(F)cccc2Oc2cc(N[C@H]3CC[C@H](O)CC3)ncc21
system-tested: TAO2 (Homo sapiens, UniProt Q9UL54)
observed-property: inhibition at 10 µM
endpoint-result: 50 to 75%

compound: CCOc1cc(C(=O)N2CCC(N3CCCC3)CC2)ccc1Nc1cc2c(cn1)N(C)S(=O)(=O)c1ccccc1N2C
system-tested: TAO2 (Homo sapiens, UniProt Q9UL54)
observed-property: inhibition at 10 µM
endpoint-result: ≤ 35%

compound: CCOc1cc(C(=O)N2CCOCC2)ccc1Nc1cc2c(cn1)N(C)C(=O)c1ccccc1[S+]2[O-] (stereo not shown)
system-tested: TAO2 (Homo sapiens, UniProt Q9UL54)
observed-property: inhibition at 10 µM
endpoint-result: ≤ 35%

compound: CCOc1cc(C(=O)N2CC[C@@H](N(C)C)C2)ccc1Nc1cc2c(cn1)N(C)S(=O)(=O)c1ccccc1N2C
system-tested: TAO2 (Homo sapiens, UniProt Q9UL54)
observed-property: inhibition at 10 µM
endpoint-result: ≤ 35%

compound: CCOc1cc(C(=O)N2CCC(NCCF)C2)ccc1Nc1cc2c(cn1)N(C)C(C(F)(F)F)c1ccccc1N2C (stereo not shown)
system-tested: TAO2 (Homo sapiens, UniProt Q9UL54)
observed-property: inhibition at 10 µM
endpoint-result: ≤ 35%

Now consider a different compound.
*Q* Can you share its inhibition at 10 µM? I mean this compound: COc1cccc2c1Oc1cc(N[C@H]3CC[C@H](O)CC3)ncc1N(C)C2=O
*A* 50 to 75%

----------
Target: ERK5 (Homo sapiens)
Construct: screened for activity against several kinases in Jurkat cells; endogenous in cells; host or cells: Jurkat cell lysate
Sequence (Q13164 whole entry): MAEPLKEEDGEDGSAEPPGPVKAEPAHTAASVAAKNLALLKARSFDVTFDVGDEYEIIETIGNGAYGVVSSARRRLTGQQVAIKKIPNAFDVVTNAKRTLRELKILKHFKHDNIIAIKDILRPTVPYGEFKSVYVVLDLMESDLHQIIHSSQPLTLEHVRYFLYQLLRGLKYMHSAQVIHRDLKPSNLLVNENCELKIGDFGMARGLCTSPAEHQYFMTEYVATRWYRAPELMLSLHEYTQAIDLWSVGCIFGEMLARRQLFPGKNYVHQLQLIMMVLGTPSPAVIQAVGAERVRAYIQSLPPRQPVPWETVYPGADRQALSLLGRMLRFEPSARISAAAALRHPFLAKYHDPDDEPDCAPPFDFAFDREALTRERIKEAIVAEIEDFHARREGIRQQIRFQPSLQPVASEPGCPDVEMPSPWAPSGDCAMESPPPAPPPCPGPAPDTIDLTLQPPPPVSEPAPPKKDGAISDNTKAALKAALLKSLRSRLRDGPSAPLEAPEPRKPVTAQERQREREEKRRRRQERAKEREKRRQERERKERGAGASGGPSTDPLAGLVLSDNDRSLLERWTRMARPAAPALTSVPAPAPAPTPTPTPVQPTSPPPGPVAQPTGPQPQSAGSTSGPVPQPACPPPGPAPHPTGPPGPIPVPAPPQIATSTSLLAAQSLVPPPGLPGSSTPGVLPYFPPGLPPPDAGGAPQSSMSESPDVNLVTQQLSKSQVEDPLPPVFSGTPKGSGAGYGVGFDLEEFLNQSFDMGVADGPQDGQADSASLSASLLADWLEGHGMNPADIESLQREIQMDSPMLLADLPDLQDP
Assay: Probe-based (AX9989 acyl phosphate ATP probe) kinase profiling in Jurkat lysate: ERK5
Assay type: binding
Conditions: calculated from percent inhibition and screening concentration; Jurkat lysate, AX9989 probe
Please provide measured IC50 for the entries that follow.

For orientation, consider the following solved cases.
compound: CCOc1cc(C(=O)N2CC[C@@H](NCCF)C2)ccc1Nc1cc2c(cn1)N(C)C(=O)c1ccccc1N2C
IC50: ≤ 50 nM

compound: CCOc1cc(C(=O)N2CCN(C3CCN(C)CC3)CC2)ccc1Nc1cc2c(cn1)N(C)C(=O)c1ccccc1N2S(C)(=O)=O
IC50: > 500 nM

compound: CCOc1cc(C(=O)N2CCN(C3CCN(C)CC3)CC2)ccc1Nc1cc2c(cn1)N(C)C(=O)c1c(F)cccc1O2
IC50: 101 to 500 nM

compound: CCOc1cc(C(=O)N2CCN(C3CCN(C)CC3)CC2)ccc1Nc1cc2c(cn1)N(C)C(=O)c1ccccc1[S+]2[O-] (centres unmarked)
IC50: > 500 nM

compound: CCOc1cc(C(=O)N2CC[C@@H](N(C)C)C2)ccc1Nc1cc2c(cn1)N(C)S(=O)(=O)c1ccccc1N2C
IC50: > 500 nM

Below are some compounds; for each one, tell me its IC50.
1. CCOc1cc(C(=O)N2CCC(NC(C)C)C2)ccc1Nc1cc2c(cn1)N(C)C(=O)c1ccccc1N2C (centres unmarked)
2. CC(C)Oc1cc(C(=O)N2CCC[C@H](O)C2)ccc1Nc1cc2c(cn1)N(C)C(=O)c1ccccc1N2C
3. CC(C)Oc1cc(C(=O)N2CCN(C3CCN(C)CC3)CC2)ccc1Nc1cc2c(cn1)N(C)C(=O)c1ccccc1N2C
4. CN1C(=O)c2ccccc2N(C)c2cc(Nc3ccc(C(=O)N4CCN(S(C)(=O)=O)CC4)cc3F)ncc21
5. C[C@@H]1C[C@H](Nc2cc3c(cn2)N(C)C(=O)c2ccccc2N3C)CC[C@H]1O

*A*
["≤ 50 nM", "101 to 500 nM", "50 to 100 nM", "≤ 50 nM", "101 to 500 nM"]
